# test.system: UniProtKB Q6DWJ6
# Sequence (Q6DWJ6 1-353): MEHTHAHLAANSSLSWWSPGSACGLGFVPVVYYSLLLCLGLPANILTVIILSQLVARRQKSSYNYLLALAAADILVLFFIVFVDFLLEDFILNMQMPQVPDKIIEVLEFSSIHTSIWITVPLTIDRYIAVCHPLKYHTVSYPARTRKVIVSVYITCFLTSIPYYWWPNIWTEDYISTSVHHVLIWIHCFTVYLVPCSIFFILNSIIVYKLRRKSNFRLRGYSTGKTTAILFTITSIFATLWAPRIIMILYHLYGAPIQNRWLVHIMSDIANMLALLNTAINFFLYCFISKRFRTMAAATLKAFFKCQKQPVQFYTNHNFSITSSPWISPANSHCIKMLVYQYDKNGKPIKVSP
# test.protocol: GPR139 Agonist titration / agonist counterscreen assay (calcium detection, HEK-GPR139 cells)
# Type: cell-based
# Parameters: expressed in transfected cells; host or cells: HEK Aequorin cells, Maxcyte transient transfection
# protocol.conditions: GPR139 Agonist Activity; fitted dose-response curve
quantity.kind: Hill Slope
Number only, please.

Here are 5 compounds together with their reported answers.
>>> measured("CCc1cc(C2=C/C(=C/c3c(OC)ccc4ccccc34)C(=O)O2)cc(OC)c1OC")
0.64
>>> measured("Cc1ccc(Br)cc1S(=O)(=O)NCCC(=O)NCCc1sccc1C")
0.79
>>> measured("CN1CCC(Oc2cc(-c3cn[nH]c3)ccc2NC(=O)C2COc3ccc(F)cc3C2)C1 (centres unmarked)")
0.54
>>> measured("Cc1ccc(C2(C)NC(=O)N(CC(=O)NCC(C)C)C2=O)cc1 (centres unmarked)")
0.74
>>> measured("CN(C(=O)CN1C(=O)NC(C)(c2ccc3ccccc3c2)C1=O)C1CCCCC1 (centres unmarked)")
0.66

stdin: Enter measured Hill Slope, system UniProtKB Q6DWJ6, for the compound shown: COc1ccc(CCNC(=O)CC(=O)NCCc2ccc(OC)cc2)cc1
stdout: 0.96

stdin: Enter measured Hill Slope, system UniProtKB Q6DWJ6, for the compound shown: COc1ccccc1NC(=O)NNC(=O)CSc1cc(C)c(Br)cc1C
stdout: 1.00

stdin: Enter measured Hill Slope, system UniProtKB Q6DWJ6, for the compound shown: O=C(Cn1cc2c(n1)CCCCC2)NCCCc1ccccc1
stdout: 1.29

stdin: Enter measured Hill Slope, system UniProtKB Q6DWJ6, for the compound shown: Cc1ccc(CCNC(=O)Cn2nc(-c3ccccc3)ccc2=O)cc1
stdout: 0.58

stdin: Enter measured Hill Slope, system UniProtKB Q6DWJ6, for the compound shown: COc1ccc(NC(=O)NCC2CC(=O)N(c3ccccc3)C2)cc1 (centres unmarked)
stdout: 1.13

stdin: Enter measured Hill Slope, system UniProtKB Q6DWJ6, for the compound shown: O=C(CN1C(=O)NC2(CCCc3ccccc32)C1=O)N1CCCCCC1 (centres unmarked)
stdout: 0.99

stdin: Enter measured Hill Slope, system UniProtKB Q6DWJ6, for the compound shown: C=C1CC(C)(c2ccc(OC)cc2)C(=C)C1CC(=O)CC1CCCCC1 (centres unmarked)
stdout: 0.65

stdin: Enter measured Hill Slope, system UniProtKB Q6DWJ6, for the compound shown: COc1ccc(CCNC(=O)Nc2ccc3c(c2)CCCN3C(=O)C2CC2)cc1
stdout: 2.01
